# Test system: SN12C
# method notes: NCI tumour cell line growth inhibition, 48 h
Calls of active or inactive are those of the source. Cut-off read from the data, not from the text of the source: active = GI50 up to about 1.1 µM and inactive = higher.
Outcomes: yes = active, no = inactive

> print(dat)
                                    compound  assigned.label
 1  COc1ccc(NCC(=O)Nn2c(-c3ccccc3)nc3ccccc3c2=O)cc1              no
 2  O=c1[nH]nc(-c2ccccc2)n1/N=C/c1ccc([N+](=O)[O-])o1              no
 3  Cc1cc(N(CCCCl)CCCCl)ccc1/C=N/c1cccc(Cl)c1              no
 4  C/C(CN1C(=O)c2ccccc2C1=O)=N\NS(=O)(=O)c1cccc(C(=O)O)c1              no
 5     CCC(C)(C)n1c(C)nc2c1C(=O)c1ccccc1C2=O              no
 6  OC(CC(O)(C(F)(F)F)C(F)(F)F)C(O)c1ccco1 (centres undefined)              no
 7  CN1CCN(c2ccc([N+](=O)[O-])c3no[n+]([O-])c23)CC1             yes
 8  CCCNC(=O)C(C)(Cl)C(=O)c1ccccc1O (centres undefined)              no
 9           c1ccc2c(c1)nc1n2sc2nc3ccccc3n21              no
10   Nc1nc(=O)c(/N=N/c2ccccc2)c(C(=O)O)[nH]1              no
11  CN(C)c1n/c(=N/c2ccc(/N=c3\nc(N(C)C)ss3)cc2)ss1              no
12  COC(=O)[C@@H]1[C@@H]2NC(=S)N[C@@]1(C)Oc1ccccc12              no
13  OC12CCC3(OC4CCCCO4)c4ccccc4C3C1c1ccccc12 (centres undefined)              no
14                      CC1(C)OP(=O)(O)CC1=O              no
15  C=CCC1C(=O)CC2(C)CC(=O)C(CC=C)C12C (centres undefined)              no
16          CC(NC(=O)c1ccccc1)(C(=O)O)C(=O)O              no
17  Cc1ccc(-c2cc(-c3ccc(Cl)cc3)nc(/N=C3\C(=O)N(CN(C)C)c4ccccc43)n2)cc1              no
18  Nc1ncnc2c1ncn2[C@@H]1C[C@H](NO)[C@@H](O)[C@H]1O              no
19  C=CCc1ccc(O)c(-c2cc(C3Oc4c(-c5cc(CC=C)ccc5O)cc(O)cc4[C@@H]3CO)ccc2O)c1 (some centres undefined)              no
20  Cc1cc(C)c(C(=O)O)c(SSc2cc(C)cc(C)c2C(=O)O)c1              no
21  O=C(CN1C(=O)c2ccccc2C1=O)OC1C=CCCC1 (centres undefined)              no
22  N#CC1(C#N)C2C=CC(C3CCC=C32)C1(C#N)C#N (centres undefined)              no
23  CC(C)c1cc(C(C)C)c(S(=O)(=O)NN)c(C(C)C)c1              no
24     COc1cccc2nc3c(C(=O)NCCN(C)C)cccc3cc12              no
25  CC1=NN(C(=O)Nc2ccccc2)C(=O)C2CCC(=O)N12 (centres undefined)              no
26  C[N+]1(c2ccccc2)C=C(c2ccccc2)SC1=S (centres undefined)              no
27   COC(CNC(=O)CNC(=O)c1ccc(C(F)(F)F)cc1)OC              no
28          O=C1C[C@@H]2[C@@H](C=CC23CC3)N1O              no
29  O=C(CC(C(=O)c1cccs1)c1cccs1)c1ccccc1Cl (centres undefined)              no
30      CSC1=N/C(=C\c2cccs2)C(=O)N1CN1CCOCC1              no
31  C[N+](C)(C)C1CC([N+](C)(C)C)C2c3ccccc3C21 (centres undefined)              no
32  CC1(CNCc2ccccc2)CC(CCc2ccccc2)N(C(=O)c2ccc([N+](=O)[O-])cc2)C1Cc1ccc(O)cc1 (centres undefined)              no
33  CC(C)(C)[Si](C)(C)OCc1cccc(OCCOc2cccc(CO[Si](C)(C)C(C)(C)C)c2[N+](=O)[O-])c1[N+](=O)[O-]              no
34                  COc1ccc(CCCC(=O)O)c(C)c1              no
35  CCCCCCCCCCCCCCCCCCOCC(COCCOCC[N+]1(CCCCCC(=O)[O-])CCCC1)Oc1ncccn1 (centres undefined)              no
36      CCCCC1=C(C(=O)N2CCOCC2)C2(OCCO2)C1=O              no
37  Cc1ccc(C(=O)OC[C@H]2CC[C@@H](n3cc(N(C)C4CCCCC4)c(=O)[nH]c3=O)O2)cc1              no
38  COc1cc(S(=O)(=O)Nc2nc(-c3ccc(N4C(=O)/C(=C\c5cccs5)N=C4c4ccccc4)cc3)cs2)ccc1Cl              no
39  Cn1c(=O)c2c(nc(N3CCOCC3)n2CCCNCC(O)c2ccc(O)c(O)c2)n(C)c1=O (centres undefined)              no
40  O=c1[nH]cc(COCC(O)CO)c(=O)[nH]1 (centres undefined)              no
41                CN(C)/N=N/c1cccc(C(N)=O)c1              no
42   COc1cc(OC)c(/C=C\c2ccnc3ccccc23)c(OC)c1              no
43  COc1ccc(NC(=O)CC(=O)N/N=C(\C)c2cc3ccccc3oc2=O)cc1              no
44  Cc1cc(N(CCC#N)S(=O)(=O)c2ccccc2)ccc1/C=N\c1cccc(C(=O)O)c1              no

###

# Test system: PC-3
# method notes: NCI tumour cell line growth inhibition, 48 h
Calls of active or inactive are those of the source. Rule as the data show it: active = GI50 up to about 1.1 µM and inactive = higher.
Outcomes: true (1) = active, false (0) = inactive

molecule	assigned label
N#CC1=C(N)N(c2ccccc2)C(c2ccccc2)C1(C#N)C#N (centres undefined)	false (0)
COC(=O)[C@@H]1[C@@H]2NC(=S)N[C@@]1(C)Oc1ccccc12	false (0)
C(=N\c1ccc(-c2nc3ccccc3s2)cc1)/c1ccco1	false (0)
COC1/C=C/C(C)C(C(C)C(OC)C(C)CCC(=O)C(C)C(C/C=C/N(C)C=O)OC)OC(=O)/C=C/C=C(\C)CC(OC)CC2=CC(=O)O[C@H](C2)C(C)C(OC)CC(OC)/C=C/C(C)C(OC)C1 (some centres undefined)	true (1)
COc1cc(OC)c(/C=C\c2ccnc3ccccc23)c(OC)c1	false (0)
CC1(C)CC(=O)c2c(nc3c4c([nH]c(-c5ccc(Br)cc5)c24)CC(C)(C)C3)C1	false (0)
CC1(C)OP(=O)(O)CC1=O	false (0)
O=C(N/N=C(COc1ccccc1)\N=C\c1cccnc1)c1ccncc1	false (0)
CC1=NN(c2nc(N)nc(/C(C#N)=C/c3ccc([N+](=O)[O-])o3)n2)C(C)(C)C1	false (0)

###

# System: SNB-19
# method notes: NCI tumour cell line growth inhibition, 48 h
Active and inactive are the calls of the source. Rule as the data show it: active = GI50 up to about 1.1 µM and inactive = higher.
Outcomes: active, inactive

compound	assigned label
COC1/C=C/C(C)C(C(C)C(OC)C(C)CCC(=O)C(C)C(C/C=C/N(C)C=O)OC)OC(=O)/C=C/C=C(\C)CC(OC)CC2=CC(=O)O[C@H](C2)C(C)C(OC)CC(OC)/C=C/C(C)C(OC)C1 (stereo not given in full)	active
COc1ccc(CCCC(=O)O)c(C)c1	inactive
C=CCc1cc(OC)c(O)c(C(=O)/C=C/c2ccc(OC)c(OC)c2)c1	inactive
CSc1c(C#N)c(O)n(-c2ccc(Cl)cc2)c(=O)c1C#N	inactive
CCCCCCCCCCCCCC(=O)CBr	inactive
CCOC(=O)c1sc(N/N=C2\NC(=O)/C(=C/c3ccc([N+](=O)[O-])cc3)S2)nc1C	inactive
COC(=O)C1(Cc2ccccc2C)Cc2ccc(C)cc2C1=O (stereo not given)	inactive
c1ccc(SC(Sc2ccccc2)=C2CCC2)cc1	inactive
COc1cc(CC(C)C(C)Cc2ccc(O)c(OC)c2)ccc1O (stereo not given) [DIHYDROGUAIARETIC ACID]	inactive
CCOC(=O)/C(=C\NCC(O)c1ccccc1)c1nc2ccccc2[nH]1 (stereo not given)	inactive

###

# Test system: A498
# method notes: NCI tumour cell line growth inhibition, 48 h
Calls of active or inactive are those of the source. Cut-off read from the data, not from the text of the source: active = GI50 up to about 1.1 µM and inactive = higher.
Here, each record is paired with measured GI50 data.
quantity measured: GI50

> print(dat)
                                   molecule               result
1   O=C(/C=C/c1ccc2c(c1)OCO2)c1ccccc(=O)c1O   29.9 µM (inactive)
2  CCC/C(Cl)=N\OC(=O)Nc1ccc(F)c([N+](=O)[O-])c1   21.5 µM (inactive)
3  O=CC(O)C(O)C(O)C1CNC(=S)O1 (stereo not given)  > 100 µM (inactive)
4  CC1(CNCc2ccccc2)CC(CCc2ccccc2)N(C(=O)c2ccc([N+](=O)[O-])cc2)C1Cc1ccc(O)cc1 (stereo not given)   12.9 µM (inactive)
5  COC(=O)C(=O)C(C(=O)C(=O)Nc1ccccc1[N+](=O)[O-])c1nc2ccc([N+](=O)[O-])cc2nc1O (stereo not given)  > 100 µM (inactive)
